These data points were gathered from PubChem BioAssay.

Experiment: compound effects on multiple myeloma cell viability – MM1S, calcein-AM fluorescence, 48 h, basal, profiling panel (AID 1165);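 also: viability of MM1S multiple myeloma cells under basal unstimulated conditions; test concentration not given here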
Settings: higher = more signal
Property Name: z-score
Form field (numeric): enter value without unit.

Compound	z-score
COCCOC(=O)N1C(=O)[C@@]2(c3cc(C#CC4=CCCCC4)ccc31)[C@H](c1ccc(OCCO)cc1)N1[C@H](c3ccccc3)[C@H](c3ccccc3)OC(=O)[C@H]1[C@@H]2C(=O)Nc1nc2ccccc2s1	-0.381
CC(C)NC(=O)[C@@]1(c2ccc([N+](=O)[O-])cc2)CC(=O)N(C(C)C)[C@@H]1c1ccc(CO)cc1	0.385
CN1C(=O)C2C(C1=O)C1C=C(c3ccc(CO)cc3)C2C(C2CC2)N1Cc1sc2ccccc2c1Cl (stereo not given)	-3.2

Query string: Consider the compound COC(=O)[C@@]1(Cc2ccccc2)[C@H]2c3cc(C(=O)N(C)C)n(Cc4ccccc4)c3C[C@H]2CN1C(=O)c1ccccc1 and give its measured z-score.
Result string: -0.143

* * *

Test: growth modulation of vineyard yeast isolate – strain RM11-1a, OD600, basal, 24 h, primary screen (AID 1177);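 also: cultures grown under basal conditions with no added stressor; test concentration not given here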
Settings: S. cerevisiae RM11-1a growth, OD600, 24 h; higher = more signal, called active from +8 up or from −8 down
Property Name: z-score
Form field (numeric): enter value without unit.

Query string: Consider the compound [N-]=[N+]=Nc1ccccc1[C@H]1OC(c2ccc(OCCCO)cc2)=N[C@@]1(CCS(=O)(=O)c1ccccc1)C(=O)N1CCOCC1 and give its measured z-score.
Result string: 1.45

Query string: Consider the compound COc1ccc(C#Cc2ccc3c(c2)[C@]2(C(=O)N3)[C@H](C(=O)N3CCN(c4ncccn4)CC3)[C@H]3C(=O)O[C@H](c4ccccc4)[C@H](c4ccccc4)N3[C@@H]2c2ccc(O)cc2)cc1 and give its measured z-score.
Result string: 0.881

Query string: Consider the compound CC(=O)n1cc(C(O)C2C=CC3C(=O)N(c4ccccc4)C(=O)C3N2Nc2ccc(C#N)cc2)c2ccccc21 (stereo not drawn) and give its measured z-score.
Result string: -0.129

* * *

Reported composite z-score values follow for various compounds
Biological target: Focal adhesion kinase 1 (Homo sapiens) (UniProt Q05397)
Sequence (Q05397 whole entry, looked up): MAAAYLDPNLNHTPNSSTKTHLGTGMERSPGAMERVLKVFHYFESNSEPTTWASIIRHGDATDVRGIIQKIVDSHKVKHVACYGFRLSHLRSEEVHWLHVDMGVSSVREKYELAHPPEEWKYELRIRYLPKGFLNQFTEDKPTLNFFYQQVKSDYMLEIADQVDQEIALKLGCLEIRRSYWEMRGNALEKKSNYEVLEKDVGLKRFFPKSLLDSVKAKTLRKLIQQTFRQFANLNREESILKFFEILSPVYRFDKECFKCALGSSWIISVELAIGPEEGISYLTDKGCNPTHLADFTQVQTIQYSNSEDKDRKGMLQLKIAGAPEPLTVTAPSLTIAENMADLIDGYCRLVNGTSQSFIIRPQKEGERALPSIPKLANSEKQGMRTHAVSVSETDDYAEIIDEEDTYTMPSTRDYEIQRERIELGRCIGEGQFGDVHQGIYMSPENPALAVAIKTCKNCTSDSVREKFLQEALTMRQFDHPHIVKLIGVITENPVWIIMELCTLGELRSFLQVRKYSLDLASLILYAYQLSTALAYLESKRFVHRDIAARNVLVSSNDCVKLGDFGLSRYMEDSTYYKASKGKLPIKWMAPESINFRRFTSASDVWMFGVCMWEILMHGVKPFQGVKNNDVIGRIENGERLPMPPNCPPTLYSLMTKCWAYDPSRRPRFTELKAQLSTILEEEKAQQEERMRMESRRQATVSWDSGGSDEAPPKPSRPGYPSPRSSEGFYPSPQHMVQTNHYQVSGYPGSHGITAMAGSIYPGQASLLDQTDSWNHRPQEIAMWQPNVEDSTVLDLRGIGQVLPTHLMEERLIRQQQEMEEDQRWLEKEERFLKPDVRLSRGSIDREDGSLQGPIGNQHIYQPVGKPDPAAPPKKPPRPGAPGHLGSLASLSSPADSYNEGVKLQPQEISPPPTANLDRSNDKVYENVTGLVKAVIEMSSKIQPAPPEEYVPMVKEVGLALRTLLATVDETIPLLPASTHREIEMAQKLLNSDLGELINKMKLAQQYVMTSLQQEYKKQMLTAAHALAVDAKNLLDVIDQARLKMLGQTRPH
Assay: PTK2 protein binding on printed compound slides – biochemical, small-molecule microarray, 635/667 nm fluorescence, BSA, DTT, primary screen (AID 1130);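 also: composite of spot emission at 667 nm and signal to noise over triplicate slides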
Settings: 635 nm fluorescence, higher = more signal

The cases that follow already have their composite z-score on record.
> print(dat)
                                   compound                          target.or.system      property.name  experimental.result
1  CN1C(=O)C2C=CC(C(O)C(C)(C)C)N(Nc3ccccc3)C2C1=O (stereo not drawn)  Focal adhesion kinase 1 (Homo sapiens) (UniProt Q05397)  composite z-score                0.694
2  C=C(CCCC)C(=O)CC[C@H](OC(C)=O)c1ccc(CO)o1  Focal adhesion kinase 1 (Homo sapiens) (UniProt Q05397)  composite z-score              -0.0408

Query string: Consider the compound CC1CC/C=C\[C@H]2OC34C=CCN(Cn5nnc6ccccc65)C(=O)[C@H]3N(CCCO)C(=O)[C@@H]4C2C(=O)O1 (stereo partly drawn) and give its measured composite z-score.
Result string: -0.47

* * *

Reported composite z-score values follow for various compounds
Target: Focal adhesion kinase 1 (Homo sapiens) (UniProt Q05397)
Test: PTK2 protein binding on printed compound slides – biochemical, small-molecule microarray, 635/667 nm fluorescence, BSA, DTT, primary screen (AID 1130);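 also: composite of spot emission at 667 nm and signal to noise over triplicate slides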
Details: 635 nm fluorescence, higher = more signal
Form field (numeric): enter value without unit.

The cases that follow already have their composite z-score on record.
> print(dat)
                                   compound  experimental.result
1  COc1cc2c(cc1O)C(c1ccc(CN3CCCC3)cc1)N(Cc1sc3ccccc3c1Cl)CC2 (centres undefined)               0.0344
2  Cc1ccc(S[C@]2(C(=O)NCCCN(C)C)CC(=O)N(Cc3ccccc3)[C@@H]2c2ccc(CO)cc2)cc1               -0.371
3  COC(=O)[C@@]1(Cc2ccc(F)cc2)[C@H]2c3cc(C(=O)N(C)C)n(CCCNc4ccc(C(F)(F)F)cc4Cl)c3C[C@H]2CN1C(=O)c1ccccc1                0.903

Please find the next compound below.
Query string: Request body: readout composite z-score, system Focal adhesion kinase 1 (Homo sapiens) (UniProt Q05397), query [N-]=[N+]=NCc1ccccc1[C@H]1OC(c2ccc(OCCCO)cc2)=N[C@@]1(Cc1ccccc1)C(=O)O . Return the value.
Result string: 0.551
